Kindly supply the reported protein stability index values for the records listed here.
B1: CDKN1A (parent)
chain: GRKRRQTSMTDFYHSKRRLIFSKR

# Variants of: B1
# protocol: protein stability index of a GFP-peptide fusion (GPS, HEK-293T) (PSI 1-6); higher = more stable;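 further: lentivirally expressed fusions sorted by FACS into six bins by GFP to DsRed ratio, PSI derived from sequencing read proportions per bin multiplied by bin number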
# run-parameters: c terminus: a fixed tail appended
Numbers only.

Use these answered entries as a reference point.
Look up protein stability index for this variant: `D11R`
3.33

Look up protein stability index for this variant: `K16N`
2.99

Look up protein stability index for this variant: `R2Y`
2.22

Look up protein stability index for this variant: `Q6E`
2.73

The following variants each have a reported value; give each one's protein stability index.
1. K16R
2. S8D
3. H14M
4. S8Y
5. K3W
6. I20M
7. Y13M
8. T10G

4.25
2.46
3.3
2.35
2.56
2.86
2.33
2.85

The following variants each have a reported value; give each one's protein stability index.
1. T7E
2. T10P
3. Q6T
4. S8Q

1: 2.22; 2: 2.48; 3: 3.34; 4: 2.69
